Source listed as patent US12247058.

- target-under-test: T1, human β-klotho with a C-terminal FLAG tag, stably expressed in a clonal HEK-293 cell line (human, UniProt Q86Z14 1-1044)
- T1 sequence: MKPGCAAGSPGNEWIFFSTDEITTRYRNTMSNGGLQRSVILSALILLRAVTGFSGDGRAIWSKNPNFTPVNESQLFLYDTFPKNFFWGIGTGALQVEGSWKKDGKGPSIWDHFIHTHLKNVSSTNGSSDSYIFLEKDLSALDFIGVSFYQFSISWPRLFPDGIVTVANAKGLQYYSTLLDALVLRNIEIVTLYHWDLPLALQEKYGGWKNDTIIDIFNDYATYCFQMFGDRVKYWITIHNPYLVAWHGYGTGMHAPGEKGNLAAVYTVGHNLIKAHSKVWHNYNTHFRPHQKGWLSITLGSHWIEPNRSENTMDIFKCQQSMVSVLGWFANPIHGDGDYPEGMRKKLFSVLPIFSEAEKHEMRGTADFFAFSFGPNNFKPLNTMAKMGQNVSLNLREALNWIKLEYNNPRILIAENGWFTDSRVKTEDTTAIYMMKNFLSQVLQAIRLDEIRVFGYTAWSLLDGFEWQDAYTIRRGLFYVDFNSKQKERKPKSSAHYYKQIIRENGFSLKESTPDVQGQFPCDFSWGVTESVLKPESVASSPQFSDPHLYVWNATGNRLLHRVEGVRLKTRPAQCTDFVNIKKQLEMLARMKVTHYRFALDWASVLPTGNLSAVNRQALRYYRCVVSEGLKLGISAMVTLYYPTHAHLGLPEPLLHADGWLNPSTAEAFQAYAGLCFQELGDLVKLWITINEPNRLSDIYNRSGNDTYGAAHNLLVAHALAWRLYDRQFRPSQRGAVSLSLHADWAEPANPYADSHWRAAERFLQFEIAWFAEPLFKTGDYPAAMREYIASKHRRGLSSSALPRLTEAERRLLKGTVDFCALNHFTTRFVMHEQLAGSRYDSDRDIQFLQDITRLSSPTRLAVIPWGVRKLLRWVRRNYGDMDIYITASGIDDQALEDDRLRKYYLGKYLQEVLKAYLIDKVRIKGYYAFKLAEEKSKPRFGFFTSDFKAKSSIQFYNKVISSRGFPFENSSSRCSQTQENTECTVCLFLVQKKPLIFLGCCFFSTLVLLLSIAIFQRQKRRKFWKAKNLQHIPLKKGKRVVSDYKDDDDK
- assay-comment: cell-based or functional assay
Non-standard residues stand in square brackets, D forms with d. Phe(4-Ac) = CC(=O)c1ccc(C[C@H](N)C(=O)O)cc1
Just a reminder that ties go to label 0: only EC50 in the pERK assay strictly below 30 nM counts as label 1.

Answered cases to consult:
binder	label-value
Pegylated Compound 12 (ligand) MHPIPDSSPLLQFGGQVRQRYLYTDDAQQTEAHLEIREDGTVGGAADQSPESLLQLKALKPGVIQILGVKTSRFLCQRPDGALYGSLHFDPEACSFRELLLEDGYNVY[Phe(4-Ac)](PEG about 30 kDa)SEAHGLPLHLPHHSGRDPAPRGPARFLPLPGLPPAPPEPPGILAPQPPDVGSSDPLSMVEPSQGRSPSYAS	label 0
Pegylated Compound 10 (ligand) MHPIPDSSPLLQFGGQVRQRYLYTDDAQQTEAHLEIREDGTVGGAADQSPESLLQLKALKPGVIQILGVKTSRFLCQRPDGALYGSLHFDPEACSFRELLLEDGYNVY[Phe(4-Ac)](PEG about 30 kDa)SEAHGLPLHLGSGGPARFLPLPGLPPAPPEPPGILAPQPPDVGSSDPLSMVEPSQGRSPSYAS	label 1
Pegylated Compound 5 (ligand) MHPIPDSSPLLQFGGQVRQRYLYTDDAQQTEAHLEIREDGTVGGAADQSPESLLQLKALKPGVIQILGVKTSRFLCQRPDGALYGSLHFDPEACSFRELLLEDGYNVY[Phe(4-Ac)](PEG 30 kDa)SEAHGLPLHLPGDKSRDPAPRGPARFLPLPGLPPAPPEPPGILAPQPPDVGSSDPLSMVEPSQGRSPSYAS	label 1
Compound 32 (Non-Pegylated Control) (ligand) MHHHHHHPIPDSSPLLQFGGQVRQRYLYTDDAQQTEAHLEIREDGTVGGAADQSPESLLQLKALKPGVIQILGVKTSRFLCQRPDGALYGSLHFDPEACSFRELLLEDGYNVYQSEAHGLPLHLPGNKSPHRDPAPRGPARFLPLPGLPPALPEPPGILAPQPPDVGSSDPLSMVGPSQGRSPSYAS	label 1

Attention now shifts to the item below.
Is EC50 in the pERK assay of Pegylated Compound 22 (ligand) MHPIPDSSPLLQFGGQVRQRYLYTDDAQQTEAHLEIREDGTVGGAADQSPESLLQLKALKPGVIQILGVKTSRFLCQRPDGALYGSLHFDPEACSFRELLLEDGYNVY[Phe(4-Ac)](PEG 30 kDa)SEAHGLPLHLSGGPAPRGPARFLPLPGLPPAPPEPPGILAPQPPDVGSSDPLSMVEPSQGRSPSYAS strictly below 30 nM?
label 0
